Exercise: for every item that follows, state its recorded IC50.
- Study System: kinase domain of IRE1 alpha (His-tagged kinase dead construct KR, AA G547-L977, D688N) (Homo sapiens (Human), UniProt O75460, D688N)
- Sequence (O75460 547-977 D688N): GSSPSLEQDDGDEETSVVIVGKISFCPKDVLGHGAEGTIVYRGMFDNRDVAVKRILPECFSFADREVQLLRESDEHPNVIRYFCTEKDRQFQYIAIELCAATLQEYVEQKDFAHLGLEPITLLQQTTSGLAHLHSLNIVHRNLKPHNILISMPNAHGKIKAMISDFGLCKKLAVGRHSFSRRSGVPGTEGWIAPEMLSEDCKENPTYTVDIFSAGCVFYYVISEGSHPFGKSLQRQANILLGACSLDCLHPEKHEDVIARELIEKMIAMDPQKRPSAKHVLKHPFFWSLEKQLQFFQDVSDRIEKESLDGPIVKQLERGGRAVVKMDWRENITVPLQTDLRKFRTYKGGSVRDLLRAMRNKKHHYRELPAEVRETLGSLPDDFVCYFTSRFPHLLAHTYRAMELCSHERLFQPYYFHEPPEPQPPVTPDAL
- Procedure Summary: IRE1α TR-FRET competition binding assay
- Protocol Conditions: competition with Kinase Tracer 236, 0.1 μM; one hour at room temperature
Structures can show the parent of a compound that is named as a salt.
Note: unit nM is implicit; provide only the numeric part.

Sample O=C(Nc1ccc(Oc2ncccc2-c2ccnc(N[C@@H]3CNC[C@@H](F)C3)n2)cc1)Nc1cccc(C(F)(F)F)c1 [Compound 276] — what was its IC50?
180

Sample O=S(=O)(CCC1CC1(F)F)Nc1ccc(Oc2ncccc2-c2ccnc(N[C@H]3CCCNC3)n2)c(F)c1F (stereo partly drawn) [Compound 217] — what was its IC50?
16

Sample O=S(=O)(Cc1ccccc1F)Nc1c(F)cc(Oc2ncccc2-c2ccnc(NC3CNCC(C4CC4)C3)n2)c(F)c1F (single isomer, unassigned) [Compound 325] — what was its IC50?
22

Sample N#Cc1ccccc1CS(=O)(=O)Nc1c(F)cc(Oc2ncccc2-c2ccnc(N[C@@H]3CNC[C@@H](F)C3)n2)c(F)c1F [Compound 358] — what was its IC50?
0.3

Sample Cn1ccc(CS(=O)(=O)Nc2c(F)cc(Oc3ncccc3-c3ccnc(N[C@H]4CCCNC4)n3)c(F)c2F)n1 [Compound 236] — what was its IC50?
9

Sample CN(C)[C@H]1CC[C@H](Nc2nccc(-c3cccnc3Oc3cc(F)c(NS(=O)(=O)Cc4ccccc4)c(F)c3F)n2)CC1 [Compound 272, hydrochloride] — what was its IC50?
0.15

====

- Study System: kinase domain of IRE1 alpha (His-tagged kinase dead construct KR, AA G547-L977, D688N) (Homo sapiens (Human), UniProt O75460, D688N)
- Procedure Summary: IRE1α TR-FRET competition binding assay
- Protocol Conditions: competition with Kinase Tracer 236, 0.1 μM; one hour at room temperature
Where a name gives a salt, the structure may show the parent alone.
Result Type: IC50 (nM)
Note: unit nM is implicit; provide only the numeric part.

Sample CC(F)C1CNCC(Nc2nccc(-c3cccnc3Oc3cc(F)c(NS(=O)(=O)Cc4ccccc4)c(F)c3F)n2)C1 (single isomer, unassigned) [Compound 343, hydrochloride] — what was its IC50?
0.78

Sample O=S(=O)(Nc1ccc(Cl)c(Oc2ncccc2-c2ccnc(N[C@H]3CCCNC3)n2)c1F)c1ccccc1Cl [Compound 137, hydrochloride] — what was its IC50?
7.4

Sample O=S(=O)(Cc1ccccc1F)Nc1c(F)cc(Oc2ncccc2-c2ccnc(NC3CNCC(C4CC4)C3)n2)c(F)c1F (single isomer, unassigned) [Compound 327] — what was its IC50?
0.26

Sample "NCCNc1nccc(-c2cccnc2Oc2ccc(NS(=O)(=O)Cc3ccccc3)c(F)c2F)n1" — what was its IC50?
180

Sample "O=S(=O)(Cc1ccccc1C(F)(F)F)Nc1c(F)cc(Oc2ncccc2-c2ccnc(N[C@@H]3CNC[C@@H](F)C3)n2)c(F)c1F" — what was its IC50?
0.3

Sample CN(C)C1CCC(Nc2nccc(-c3cccnc3Oc3cc(F)c(NS(=O)(=O)Cc4ccccc4)c(F)c3F)n2)CC1F (single isomer, unassigned) [Compound 306] — what was its IC50?
43

Sample CC(F)C1CNCC(Nc2nccc(-c3cccnc3Oc3cc(F)c(NS(=O)(=O)Cc4ccccc4)c(F)c3F)n2)C1 (single isomer, unassigned) [Compound 346] — what was its IC50?
72

Sample Cc1cc(NS(=O)(=O)C2CCCC2)cc(F)c1Oc1ncccc1-c1ccnc(N[C@H]2CCCNC2)n1 [Compound 116, hydrochloride] — what was its IC50?
23

Sample "Cc1c(Oc2ncccc2-c2ccnc(N[C@@H]3CNC[C@@](C)(F)C3)n2)cc(F)c(NS(=O)(=O)Cc2ccccc2)c1F" — what was its IC50?
0.33

Sample O=S(=O)(Cc1ccccc1)Nc1c(F)cc(Oc2ncccc2-c2ccnc(NC3CNCC4(C3)CC4(F)F)n2)c(F)c1F (single isomer, unassigned) [Compound 298] — what was its IC50?
1.8

Sample "COc1ccccc1CS(=O)(=O)Nc1ccc(Oc2ncccc2-c2ccnc(N[C@H]3CCCNC3)n2)c(F)c1F" — what was its IC50?
0.9

Sample "O=S(=O)(CCC1CCCCC1)Nc1ccc(Oc2ncccc2-c2ccnc(N[C@H]3CCCNC3)n2)c(F)c1F" — what was its IC50?
11

====

- Study System: kinase domain of IRE1 alpha (His-tagged kinase dead construct KR, AA G547-L977, D688N) (Homo sapiens (Human), UniProt O75460, D688N)
- Procedure Summary: IRE1α TR-FRET competition binding assay
- Protocol Conditions: competition with Kinase Tracer 236, 0.1 μM; one hour at room temperature
Where a name gives a salt, the structure may show the parent alone.
Result Type: IC50 (nM)
Note: unit nM is implicit; provide only the numeric part.

Sample CC(c1ccc(C#N)cc1)S(=O)(=O)Nc1ccc(Oc2ncccc2-c2ccnc(N[C@H]3CCCNC3)n2)c(F)c1F (stereo partly shown) — what was its IC50?
0.3

Sample "O=S(=O)(Cc1ccccc1F)Nc1c(F)cc(Oc2ncccc2-c2ccnc(N[C@@H]3CNC[C@@H](F)C3)n2)c(Cl)c1F" — what was its IC50?
56

Sample "O=S(=O)(Cc1ccccn1)Nc1c(F)cc(Oc2ncccc2-c2ccnc(N[C@@H]3CNC[C@@H](F)C3)n2)c(F)c1F" — what was its IC50?
0.2

Sample "COc1cccc(CS(=O)(=O)Nc2c(F)cc(Oc3ncccc3-c3ccnc(N[C@@H]4CNC[C@@](C)(F)C4)n3)c(F)c2F)c1" — what was its IC50?
0.28

Sample "O=S(=O)(Nc1c(F)cc(Oc2ncccc2-c2ccnc(N[C@@H]3CNC[C@@H](F)C3)n2)c(F)c1F)N1CCCCC1" — what was its IC50?
1.5

Sample "CN1CCC(Nc2nccc(-c3cccnc3Oc3ccc(NS(=O)(=O)Cc4ccccc4)c(F)c3F)n2)CC1" — what was its IC50?
67

Sample O=S(=O)(Cc1ccccc1)Nc1ccc(Oc2ncccc2-c2ccnc(N[C@H]3CCCNC3)n2)c(F)c1F [Compound 108, hydrochloride] — what was its IC50?
3.4

Sample "CC(C)(C)CCS(=O)(=O)Nc1ccc(Oc2ncccc2-c2ccnc(N[C@H]3CCCNC3)n2)c(F)c1F" — what was its IC50?
18

Sample "O=S(=O)(Cc1ccccc1Cl)Nc1c(F)cc(Oc2ncccc2-c2ccnc(N[C@@H]3CNC[C@@H](F)C3)n2)c(F)c1F" — what was its IC50?
0.2

Sample "O=S(=O)(Cc1cccnc1)Nc1ccc(Oc2ncccc2-c2ccnc(N[C@H]3CCCNC3)n2)c(F)c1F" — what was its IC50?
9

Sample "O=S(=O)(Cc1ccccc1)Nc1ccc(Oc2ncccc2-c2ccnc(N[C@H]3CCNC3)n2)c(F)c1F" — what was its IC50?
17

Sample "O=S(=O)(CC12CCC(CC1)C2)Nc1c(F)cc(Oc2ncccc2-c2ccnc(N[C@@H]3CNC[C@@H](F)C3)n2)c(F)c1F" — what was its IC50?
0.2

Sample "Cc1ccc(CS(=O)(=O)Nc2c(C)cc(Oc3ncccc3-c3ccnc(N[C@@H]4CNC[C@@](C)(F)C4)n3)c(F)c2F)cc1" — what was its IC50?
0.21

====

- Study System: kinase domain of IRE1 alpha (His-tagged kinase dead construct KR, AA G547-L977, D688N) (Homo sapiens (Human), UniProt O75460, D688N)
- Procedure Summary: IRE1α TR-FRET competition binding assay
- Protocol Conditions: competition with Kinase Tracer 236, 0.1 μM; one hour at room temperature
Where a name gives a salt, the structure may show the parent alone.
Exercise: for every item that follows, state its recorded IC50.
Note: unit nM is implicit; provide only the numeric part.

Sample "Cc1ccc(CS(=O)(=O)Nc2cc(F)c(Oc3ncccc3-c3ccnc(N[C@@H]4CNC[C@@](C)(F)C4)n3)c(C)c2F)cc1" — what was its IC50?
0.29

Sample O=S(=O)(CCC(F)(F)F)Nc1cc(F)c(Oc2ncccc2-c2ccnc(N[C@H]3CCCNC3)n2)cc1F [Compound 109, hydrochloride] — what was its IC50?
26

Sample "Cc1ccccc1CS(=O)(=O)Nc1c(F)cc(Oc2ncccc2-c2ccnc(N[C@@H]3CNC[C@@H](F)C3)n2)c(F)c1F" — what was its IC50?
0.3

====

- Study System: kinase domain of IRE1 alpha (His-tagged kinase dead construct KR, AA G547-L977, D688N) (Homo sapiens (Human), UniProt O75460, D688N)
- Procedure Summary: IRE1α TR-FRET competition binding assay
- Protocol Conditions: competition with Kinase Tracer 236, 0.1 μM; one hour at room temperature
pIC50: −log10 of the molar value. Structures can show the parent of a compound that is named as a salt.
Please use true whenever pIC50 is not below 8, and false whenever it is.

Please tell me: is the compound "C[C@@]1(F)CNC[C@@H](Nc2nccc(-c3cccnc3Oc3cc(F)c(NS(=O)(=O)CC4CC(F)(F)C4)c(F)c3F)n2)C1" at or over 8 in terms of pIC50?
true

Please tell me: is the compound "Cc1cc(Oc2ncccc2-c2ccnc(N[C@@H]3CNC[C@@H](F)C3)n2)c(F)c(F)c1NS(=O)(=O)Cc1ccccc1" at or over 8 in terms of pIC50?
true

Please tell me: is the compound COCC1CNCC(Nc2nccc(-c3cccnc3Oc3cc(F)c(NS(=O)(=O)Cc4ccccc4)c(F)c3F)n2)C1 (single isomer, unassigned) [Compound 331] at or over 8 in terms of pIC50?
true

Please tell me: is the compound O=S(=O)(Cc1ccccc1)Nc1c(F)cc(Oc2ncccc2-c2ccnc(CC3CCCNC3)n2)c(F)c1F (single isomer, unassigned) [Compound 198] at or over 8 in terms of pIC50?
false

Please tell me: is the compound CC(F)C1CNCC(Nc2nccc(-c3cccnc3Oc3cc(F)c(NS(=O)(=O)Cc4ccccc4)c(F)c3F)n2)C1 (single isomer, unassigned) [Compound 345, hydrochloride] at or over 8 in terms of pIC50?
true

Please tell me: is the compound "O=S(=O)(Cc1c(F)cccc1Cl)Nc1c(F)cc(Oc2ncccc2-c2ccnc(N[C@@H]3CNC[C@@H](F)C3)n2)c(F)c1F" at or over 8 in terms of pIC50?
true

Please tell me: is the compound "C[C@H]1CC[C@H](Nc2nccc(-c3cccnc3Oc3cc(F)c(NS(=O)(=O)Cc4ccccc4)c(F)c3F)n2)CN1" at or over 8 in terms of pIC50?
false

Please tell me: is the compound Cc1cc(NS(=O)(=O)c2ccccc2Cl)cc(C)c1Oc1ncccc1-c1ccnc(N[C@H]2CCCNC2)n1 [Compound 131, hydrochloride] at or over 8 in terms of pIC50?
false

Please tell me: is the compound "Cc1ccc(C(=O)NS(=O)(=O)c2ccccc2Cl)cc1Oc1ncccc1-c1ccnc(N[C@H]2CCCNC2)n1" at or over 8 in terms of pIC50?
false

Please tell me: is the compound "O=S(=O)(Cc1ccccc1F)Nc1c(F)cc(Oc2ncccc2-c2ccnc(N[C@@H]3CNC[C@@H](F)C3)n2)c(F)c1F" at or over 8 in terms of pIC50?
true

Please tell me: is the compound "Cc1c(NS(=O)(=O)c2ccccc2Cl)ccc(Oc2ncccc2-c2ccnc(N[C@H]3CCCNC3)n2)c1C" at or over 8 in terms of pIC50?
false

Please tell me: is the compound OC(CNc1cccc(Oc2ncccc2-c2ccnc(N[C@H]3CCCNC3)n2)c1F)C(F)(F)F (single isomer, unassigned) [Compound 200] at or over 8 in terms of pIC50?
false

Please tell me: is the compound O=S(=O)(Cc1ccccc1)Nc1ccc(Oc2ncccc2-c2ccnc(N[C@H]3CCCNC3)n2)cc1F [Compound 106, hydrochloride] at or over 8 in terms of pIC50?
true

Please tell me: is the compound "COc1ccc(CS(=O)(=O)Nc2c(F)cc(Oc3ncccc3-c3ccnc(N[C@@H]4CNC[C@@](C)(F)C4)n3)c(F)c2F)cc1" at or over 8 in terms of pIC50?
true

Please tell me: is the compound "CCCS(=O)(=O)Nc1c(F)cc(Oc2ncccc2-c2ccnc(N[C@H]3CC[C@H](N(C)C)CC3)n2)c(F)c1F" at or over 8 in terms of pIC50?
true

Please tell me: is the compound COCCN(C)[C@H]1CC[C@H](Nc2nccc(-c3cccnc3Oc3cc(F)c(NS(=O)(=O)Cc4ccc(F)cc4)c(F)c3F)n2)CC1 [Compound 341, hydrochloride] at or over 8 in terms of pIC50?
true

Please tell me: is the compound "CCC(F)(F)CS(=O)(=O)Nc1c(F)cc(Oc2ncccc2-c2ccnc(N[C@@H]3CNC[C@@H](F)C3)n2)c(F)c1F" at or over 8 in terms of pIC50?
true

Please tell me: is the compound CCC1CCN(c2ccc(Oc3ncccc3-c3ccnc(N[C@H]4CCCNC4)n3)c(F)c2F)C1=O (single isomer, unassigned) [Compound 248] at or over 8 in terms of pIC50?
false

Please tell me: is the compound "Cc1cc(Oc2ncccc2-c2ccnc(N[C@H]3CCCNC3)n2)c(C)cc1NS(=O)(=O)c1ccccc1Cl" at or over 8 in terms of pIC50?
false

All values here come from patent US12071425B2.
